IC50 reference
Biological target: human kinase Mps-1 (Homo sapiens)
Construct: N-terminally GST-tagged human full length recombinant Mps-1 kinase; purchased Invitrogen, Karslruhe, Germany PV4071
Assay: Mps-1 kinase assay (HTRF)
Format: biochemical
Settings: lowATP; mean; read-out: Mps1 lowATP mean IC50

These recorded examples may help you get a feel for the data.
What does the record list as IC50 for CC(C)CNc1nc2ccccc2n2c(-c3ccc(S(C)(=O)=O)cc3)cnc12 ? 17400 nM

What does the record list as IC50 for CNC(=O)Nc1ccc(-c2cnc3c(NCCCn4ccnc4)nc4cc(C)c(C)cc4n23)cc1 ? 274 nM

What does the record list as IC50 for CCCNc1nc2cc(F)c(F)cc2n2c(-c3ccc(C(=O)NC4CC4)c(Cl)c3)cnc12 ? 319 nM

What does the record list as IC50 for Cc1cc2nc(NCCCNC(=O)OC(C)(C)C)c3ncc(-c4ccc(C(=O)NC5CC5)c(Cl)c4)n3c2cc1C ? 50.5 nM

What does the record list as IC50 for O=C(NC1CC1)c1ccc(-c2cnc3c(NCc4ccncc4)nc4ccc(F)cc4n23)cc1Cl ? 1090 nM

What does the record list as IC50 for N#Cc1ccc2c(c1)nc(NCCC(N)=O)c1ncc(-c3ccc(C(=O)NC4CC4)cc3)n12 ? 140 nM

What does the record list as IC50 for CNC(=O)Nc1ccc(-c2cnc3c(NCCNC(C)=O)nc4ccc(F)cc4n23)cc1 ? 11800 nM

What does the record list as IC50 for COc1ccc(-c2cnc3c(NCC(C)C)nc4ccccc4n23)cc1F ? 1760 nM

What does the record list as IC50 for CC(C)CNc1nc2ccccc2n2c(-c3ccc4[nH]ccc4c3)cnc12 ? 8860 nM

What does the record list as IC50 for O=C(NC1CC1)c1ccc(-c2cnc3c(Nc4ccccc4)nc4ccccc4n23)cc1 ? 545 nM

More entries:
What does the record list as IC50 for Cc1cc2nc(NCCCO)c3ncc(-c4ccc(C(=O)NC5CC5)c(Cl)c4)n3c2cc1C ? 117 nM

What does the record list as IC50 for O=C(NC1CC1)c1ccc(-c2cnc3c(NCC(O)CO)nc4ccc(F)cc4n23)cc1 (stereo not drawn) ? 477 nM

What does the record list as IC50 for CCNc1nc2cc(C#N)ccc2n2c(-c3ccc(C(=O)NC4CC4)cc3)cnc12 ? 35.9 nM

What does the record list as IC50 for O=C(NC1CC1)c1ccc(-c2cnc3c(NCCCN4CCOCC4)nc4ccccc4n23)cc1 ? 396 nM

What does the record list as IC50 for O=C(NC1CC1)c1ccc(-c2cnc3c(NCc4cccs4)nc4ccc(F)cc4n23)cc1 ? 40.3 nM

What does the record list as IC50 for CNC(=O)Nc1ccc(-c2cnc3c(NCc4ccncc4)nc4cc(C)c(C)cc4n23)cc1 ? 260 nM

What does the record list as IC50 for O=C(NC1CC1)c1ccc(-c2cnc3c(NCCCN4CCOCC4)nc4cc(F)c(F)cc4n23)cc1 ? 438 nM

What does the record list as IC50 for CCCNc1nc2ccc(F)cc2n2c(-c3ccc(C(=O)NC4CC4)c(Cl)c3)cnc12 ? 1080 nM

What does the record list as IC50 for CC(C)CNc1nc2ccccc2n2c(-c3ccccc3)cnc12 ? 8180 nM

What does the record list as IC50 for CNC(=O)Nc1ccc(-c2cnc3c(NCCO)nc4cc(C#N)ccc4n23)cc1 ? 4320 nM

What does the record list as IC50 for Cc1cc2nc(NCC(O)CO)c3ncc(-c4ccc(C(=O)NC5CC5)c(Cl)c4)n3c2cc1C (stereo not drawn) ? 335 nM

What does the record list as IC50 for CNC(=O)Nc1ccc(-c2cnc3c(NCCCOC)nc4ccc(F)cc4n23)cc1 ? 4950 nM

What does the record list as IC50 for CC(C)CNc1nc2ccccc2n2c(-c3ccc(C(N)=O)cc3)cnc12 ? 399 nM

What does the record list as IC50 for O=C(NC1CC1)c1ccc(-c2cnc3c(NCCCn4ccnc4)nc4cc(F)c(F)cc4n23)cc1 ? 229 nM

What does the record list as IC50 for CC(=O)NCCNc1nc2cc(F)c(F)cc2n2c(-c3ccc(C(=O)NC4CC4)c(Cl)c3)cnc12 ? 7740 nM

What does the record list as IC50 for O=C(NC1CC1)c1ccc(-c2cnc3c(NCCN4CCOCC4)nc4ccccc4n23)cc1 ? 127 nM

----------
Target: human kinase Mps-1 (Homo sapiens, UniProt P33981)
Construct: N-terminally GST-tagged human full length recombinant Mps-1 kinase
Sequence (P33981 whole entry): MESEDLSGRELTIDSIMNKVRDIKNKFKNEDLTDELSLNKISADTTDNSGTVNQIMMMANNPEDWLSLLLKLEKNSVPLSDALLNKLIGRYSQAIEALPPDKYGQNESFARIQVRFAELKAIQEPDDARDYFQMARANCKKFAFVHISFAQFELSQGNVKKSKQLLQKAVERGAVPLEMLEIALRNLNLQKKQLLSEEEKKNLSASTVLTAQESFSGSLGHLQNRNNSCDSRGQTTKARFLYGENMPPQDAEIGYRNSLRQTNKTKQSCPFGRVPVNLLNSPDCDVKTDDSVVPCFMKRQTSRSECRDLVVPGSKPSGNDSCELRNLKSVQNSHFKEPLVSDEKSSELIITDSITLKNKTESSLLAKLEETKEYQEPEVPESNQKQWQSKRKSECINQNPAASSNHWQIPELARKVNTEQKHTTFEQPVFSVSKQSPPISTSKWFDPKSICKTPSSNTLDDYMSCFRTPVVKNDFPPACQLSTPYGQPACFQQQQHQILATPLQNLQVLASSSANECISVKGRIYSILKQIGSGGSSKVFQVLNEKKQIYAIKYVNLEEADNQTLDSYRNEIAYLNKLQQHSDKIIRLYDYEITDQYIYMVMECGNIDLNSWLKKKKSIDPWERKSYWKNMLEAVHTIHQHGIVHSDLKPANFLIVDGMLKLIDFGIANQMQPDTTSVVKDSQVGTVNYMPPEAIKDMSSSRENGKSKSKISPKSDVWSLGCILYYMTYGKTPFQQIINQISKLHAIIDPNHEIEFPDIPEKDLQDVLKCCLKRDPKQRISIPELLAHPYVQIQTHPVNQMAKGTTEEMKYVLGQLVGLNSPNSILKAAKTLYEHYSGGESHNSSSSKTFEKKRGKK
Assay: Mps-1 kinase assay (HTRF)
Conditions: lowATP; mean; read-out: Mps1 lowATP mean IC50
# y = IC50 below 0.09 µM (exclusive); n = IC50 at/above 0.09 µM

Field: below-cutoff. Rule: recorded IC50 strictly less than 0.09 µM. Subject: NS(=O)(=O)CCNc1nc2ccccc2n2c(-c3ccc(C(=O)NC4CC4)cc3)cnc12 y

More entries:
Field: below-cutoff. Rule: recorded IC50 strictly less than 0.09 µM. Subject: CC(C)CNc1nc2ccccc2n2c(-c3ccc(CO)cc3)cnc12 n

Field: below-cutoff. Rule: recorded IC50 strictly less than 0.09 µM. Subject: Cn1nccc1CNc1nc2ccc(F)cc2n2c(-c3ccc(C(=O)NC4CC4)c(Cl)c3)cnc12 n

Field: below-cutoff. Rule: recorded IC50 strictly less than 0.09 µM. Subject: COCCCNc1nc2cc(C)c(C)cc2n2c(-c3ccc(C(=O)NC4CC4)cc3)cnc12 y

Field: below-cutoff. Rule: recorded IC50 strictly less than 0.09 µM. Subject: O=C(NC1CC1)c1ccc(-c2cnc3c(NCc4ccc5c(c4)OCO5)nc4ccccc4n23)cc1 y

Field: below-cutoff. Rule: recorded IC50 strictly less than 0.09 µM. Subject: CC(C)CNc1nc2ccccc2n2c(-c3ccc(C(=O)NCCC(N)=O)cc3)cnc12 n

Field: below-cutoff. Rule: recorded IC50 strictly less than 0.09 µM. Subject: O=C(NC1CC1)c1ccc(-c2cnc3c(NCc4ccccc4)nc4ccccc4n23)cc1 y

Field: below-cutoff. Rule: recorded IC50 strictly less than 0.09 µM. Subject: O=C(NC1CC1)c1ccc(-c2cnc3c(NCC(F)(F)F)nc4cc(F)c(F)cc4n23)cc1 n

----------
Target: human kinase Mps-1 (Homo sapiens)
Construct: N-terminally GST-tagged human full length recombinant Mps-1 kinase
Assay: Mps-1 kinase assay (HTRF)
Conditions: lowATP; mean; read-out: Mps1 lowATP mean IC50
pIC50 reference
Give only the number. pIC50 is defined as minus log10 of concentration in molar units.

What does the record list as pIC50 for CC(C)CNc1nc2ccccc2n2c(-c3cccnc3)cnc12 ? 4.72

What does the record list as pIC50 for CNC(=O)c1ccc(-c2cnc3c(NCC(C)C)nc4ccccc4n23)cn1 ? 6.38

What does the record list as pIC50 for CNC(=O)Nc1ccc(-c2cnc3c(NCc4ccccc4)nc4cc(C)c(C)cc4n23)cc1 ? 6.22

More entries:
What does the record list as pIC50 for CCCNc1nc2cc(C)c(C)cc2n2c(-c3ccc(C(=O)NC4CC4)cc3)cnc12 ? 8.38

----------
Molecular target: human kinase Mps-1 (Homo sapiens)
Construct: N-terminally GST-tagged human full length recombinant Mps-1 kinase
Test: Mps-1 kinase assay (HTRF)
Conditions: lowATP; mean; read-out: Mps1 lowATP mean IC50
Procedure: The human kinase Mps-1 phosphorylates a biotinylated substrate peptide. Detection of the phosphorylated product is achieved by homogenous time-resolved fluorescence resonance energy transfer (HTRF) from Europium-labelled anti-phospho-Serine/Threonine antibody as donor to streptavidin labelled with cross-linked allophycocyanin (SA-XLent) as acceptor. Compounds are tested for their inhibition of the kinase activity. […]
READOUT: pIC50
Give only the number. pIC50 is defined as minus log10 of concentration in molar units.

These recorded examples may help you get a feel for the data.
Please tell me: pIC50 of Cc1cc2nc(NCc3cnn(C)c3)c3ncc(-c4ccc(C(=O)NC5CC5)cc4)n3c2cc1C , system human kinase Mps-1 (Homo sapiens)? 8.26

Please tell me: pIC50 of N#Cc1ccc2c(c1)nc(NCc1cccc(F)c1)c1ncc(-c3ccc(C(=O)NC4CC4)cc3)n12 , system human kinase Mps-1 (Homo sapiens)? 7.30

Please tell me: pIC50 of Cc1cc2nc(NCC(C)C)c3ncc(-c4ccc(C(=O)NC5CC5)cc4)n3c2cc1C , system human kinase Mps-1 (Homo sapiens)? 8.65

Please tell me: pIC50 of CC(C)CNc1nc2ccccc2n2c(-c3ccc(C(=O)NC4(C#N)CC4)cc3)cnc12 , system human kinase Mps-1 (Homo sapiens)? 6.67

Please tell me: pIC50 of Cc1cc2nc(NCc3ccccn3)c3ncc(-c4ccc(C(=O)NC5CC5)cc4)n3c2cc1C , system human kinase Mps-1 (Homo sapiens)? 7.71

Please tell me: pIC50 of O=C(NC1CC1)c1ccc(-c2cnc3c(NCCO)nc4cc(F)c(F)cc4n23)cc1 , system human kinase Mps-1 (Homo sapiens)? 6.54

Please tell me: pIC50 of CC(C)CCNc1nc2cc(F)c(F)cc2n2c(-c3ccc(C(=O)NC4CC4)cc3)cnc12 , system human kinase Mps-1 (Homo sapiens)? 7.26

Turning now to a further record.
Please tell me: pIC50 of Cc1cc2nc(NCC3CC3)c3ncc(-c4ccc(C(=O)NC5CC5)c(Cl)c4)n3c2cc1C , system human kinase Mps-1 (Homo sapiens)? 7.36
